Quick record of IC50 values for Xanthine dehydrogenase/oxidase (Bos taurus).
MEASURED ENDPOINT: IC50 (µM)

COMPOUND | IC50, µM
COc1ccc(C(CC(=O)c2ccccc2)NC(C)=O)cc1 (stereo unspecified) | 45

1 = C[N+](=O)C(CC(=O)c1ccccc1)c1c2ccccc2cc2ccccc12 (stereo unspecified)
2 = CC(=O)NC(CC(=O)c1ccco1)c1cccc([N+](=O)[O-])c1 (stereo unspecified)
[Q] Input pair: 1 , 2 . Output: entry with lower IC50. Kindly state the label of the option you pick.
[A] 2

----------
# TESTED ON: Xanthine dehydrogenase/oxidase (Bos taurus, UniProt P80457)
# Sequence (P80457 whole entry): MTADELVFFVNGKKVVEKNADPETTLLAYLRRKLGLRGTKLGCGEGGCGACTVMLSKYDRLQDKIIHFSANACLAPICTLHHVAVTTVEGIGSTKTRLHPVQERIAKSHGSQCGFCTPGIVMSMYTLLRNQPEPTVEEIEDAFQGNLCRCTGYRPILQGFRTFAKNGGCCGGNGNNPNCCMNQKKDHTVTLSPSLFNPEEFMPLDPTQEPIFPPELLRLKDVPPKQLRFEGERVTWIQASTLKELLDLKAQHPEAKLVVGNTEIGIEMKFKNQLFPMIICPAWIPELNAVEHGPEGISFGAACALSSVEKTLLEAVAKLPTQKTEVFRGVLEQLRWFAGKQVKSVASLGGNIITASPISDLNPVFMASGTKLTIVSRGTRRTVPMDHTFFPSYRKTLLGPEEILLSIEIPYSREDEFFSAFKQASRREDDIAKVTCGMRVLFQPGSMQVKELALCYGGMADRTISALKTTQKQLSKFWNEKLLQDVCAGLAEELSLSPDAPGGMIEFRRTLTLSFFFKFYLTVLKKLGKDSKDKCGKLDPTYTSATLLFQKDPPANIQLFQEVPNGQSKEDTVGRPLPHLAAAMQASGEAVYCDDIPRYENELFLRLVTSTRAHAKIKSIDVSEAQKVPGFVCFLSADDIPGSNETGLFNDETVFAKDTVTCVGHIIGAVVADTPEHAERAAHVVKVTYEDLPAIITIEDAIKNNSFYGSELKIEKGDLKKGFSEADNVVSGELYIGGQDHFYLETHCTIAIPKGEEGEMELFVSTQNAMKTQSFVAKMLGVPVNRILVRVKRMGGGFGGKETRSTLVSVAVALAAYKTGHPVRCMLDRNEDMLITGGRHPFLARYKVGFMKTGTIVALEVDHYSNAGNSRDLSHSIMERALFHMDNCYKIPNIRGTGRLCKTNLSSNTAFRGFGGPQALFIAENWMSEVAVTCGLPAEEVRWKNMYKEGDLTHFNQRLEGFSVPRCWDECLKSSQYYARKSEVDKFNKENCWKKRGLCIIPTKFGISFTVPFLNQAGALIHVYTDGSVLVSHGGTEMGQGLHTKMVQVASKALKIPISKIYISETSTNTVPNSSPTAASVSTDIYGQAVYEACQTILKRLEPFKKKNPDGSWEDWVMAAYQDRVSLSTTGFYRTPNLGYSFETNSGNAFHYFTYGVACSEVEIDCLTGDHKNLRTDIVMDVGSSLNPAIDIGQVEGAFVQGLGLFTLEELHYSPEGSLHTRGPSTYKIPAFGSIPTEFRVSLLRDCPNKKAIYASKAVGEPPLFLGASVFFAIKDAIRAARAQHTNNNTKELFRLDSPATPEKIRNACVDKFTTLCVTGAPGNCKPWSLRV
pIC50: −log10 of the molar value.
MEASURED ENDPOINT: pIC50

MOLECULE | pIC50
COc1ccc(OC)c(C(CC(=O)c2ccccc2)NC(C)=O)c1 (stereo not drawn) | 4.36
CC(=O)Nc1cccc(C(=O)CC(/C=C/c2ccccc2)NC(C)=O)c1 (stereo not drawn) | 4.16
CC(=O)NC(CC(=O)c1ccccc1)c1cccc(Br)c1 (stereo not drawn) | 4.55
CC(=O)NC(CC(=O)c1ccco1)c1ccccc1 (stereo not drawn) | 4.59
CC(=O)NC(CC(=O)c1cccc2ccccc12)c1ccccc1 (stereo not drawn) | 4.40
CC(=O)NC(CC(=O)c1ccccc1)c1ccccc1 (stereo not drawn) | 4.42

I = CC(=O)NC(CC(=O)c1ccccc1)c1ccc(C#N)cc1 (stereo not drawn)
II = CC(=O)NC(CC(=O)c1ccc([N+](=O)[O-])cc1)c1ccccc1 (stereo not drawn)
[Q] Input pair: I , II . Output: entry with lower pIC50. Kindly state the label of the option you pick.
[A] II
(II: 4.32, I: 4.54)
